Each entry below carries its recorded TGI.
Tested on: BT-549 breast
PROCEDURE DETAILS: NCI tumour cell line growth inhibition, 48 h
# unit: µM | format: bare number

The following compounds have reported results that may help.
[[record]]
compound = "O=C1c2cccnc2-c2nccc3ccnc1c23"
reported_metric = "TGI"
value = 2.78

[[record]]
compound = "O=C(Nc1cccc2ccccc12)c1cc2ccccc2cc1O"
reported_metric = "TGI"
value = 16.4

[[record]]
compound = "CC1=C/C(=C(/c2ccc(O)c(C)c2)c2ccccc2C(=O)O)C=CC1=O"
reported_metric = "TGI"
value = 39


Attention now turns to another entry.
### Prompt Using known records, supply TGI for COc1ccc2c(c1)N(CCO)C1=C(C(=O)OC1)C2c1cccc(Br)c1 (stereo unspecified)
### Response 34
